// provenance: ChEMBL document CHEMBL3988442

Test system: Mycobacterium tuberculosis
ASSAY REMARKS: Cornell M. t heat shock assay; note: in the data most compounds retested in dose-response had high values
Format: functional, organism-based
Set-up: dose or concentration left out as unconfirmed
Hit rate of the full screen: of about 69,000 compounds, about 950 (1.4%) showed an effect of 50% or more. Shown is part of a subset that was picked to be rich in strong results.
TEST READOUT: Percent Effect (%)
Give the value in % but do not write % after it.

Worked cases, answers included:
MOLECULE: CC(=O)c1ccc(NC(=O)N[C@H](C(=O)O)C(C)C)cc1
TEST READOUT: Percent Effect
DISPLAY UNIT: %
EXPERIMENTAL VALUE: -1.764

MOLECULE: Cc1ccc(C(=O)N2CC(=O)N(Cc3cccs3)CC(O)C2)cc1 (stereo unspecified)
TEST READOUT: Percent Effect
DISPLAY UNIT: %
EXPERIMENTAL VALUE: 58.25

MOLECULE: CC(Cn1cccn1)NC(=O)Nc1ccc(F)cc1 (stereo unspecified)
TEST READOUT: Percent Effect
DISPLAY UNIT: %
EXPERIMENTAL VALUE: 97.32

MOLECULE: CSc1ccc(C(=O)N2CC(=O)N(Cc3ccccc3)CC(O)C2)cc1 (stereo unspecified)
TEST READOUT: Percent Effect
DISPLAY UNIT: %
EXPERIMENTAL VALUE: 28.35

MOLECULE: Cc1cnn(CCNCc2csc(-c3ccsc3)n2)c1
TEST READOUT: Percent Effect
DISPLAY UNIT: %
EXPERIMENTAL VALUE: 107.8

MOLECULE: COCc1ccc(CN2CCC(O)(Cn3ccc4ncccc43)CC2)o1.Cl
TEST READOUT: Percent Effect
DISPLAY UNIT: %
EXPERIMENTAL VALUE: -9.994

MOLECULE: Cc1cnn(CC(C)NCc2csc(-c3ccsc3)n2)c1 (stereo unspecified)
TEST READOUT: Percent Effect
DISPLAY UNIT: %
EXPERIMENTAL VALUE: 27.16

MOLECULE: Clc1cncc(N2CCCC2c2nnc3n2CCCCC3)n1 (stereo unspecified)
TEST READOUT: Percent Effect
DISPLAY UNIT: %
EXPERIMENTAL VALUE: -7.126

MOLECULE: CC(=O)c1ccc(NC(=O)NC(C(=O)N(C)C)C(C)C)cc1 (stereo unspecified)
TEST READOUT: Percent Effect
DISPLAY UNIT: %
EXPERIMENTAL VALUE: 30.77

MOLECULE: CO[C@H]1CCN(Cc2cccs2)[C@@H]2CN(Cc3ccncc3)C[C@H]12.O=C(O)C(F)(F)F.O=C(O)C(F)(F)F.O=C(O)C(F)(F)F
TEST READOUT: Percent Effect
DISPLAY UNIT: %
EXPERIMENTAL VALUE: 0.7697

The record that follows has no Percent Effect shown yet.
Challenge: For the molecule Cl.c1cnc2c(c1)cc([C@@H]1CCCO1)n2CCN1CCCCC1 , report Percent Effect.
Response given: -17.62

###

Tested on: Mycobacterium tuberculosis
ASSAY REMARKS: Cornell M. t heat shock assay; note: in the data most compounds retested in dose-response had high values
Assay type: functional, organism-based
Parameters: dose or concentration left out as unconfirmed
The campaign covered roughly 69,000 compounds. About 950 (1.4%) showed an effect of 50% or more. The sample as a whole holds a higher share of strong results than the screen did.
Percent Effect listing for selected compounds.
Give the value in % but do not write % after it.

Worked cases, answers included:
COMPOUND: CCCn1cc(-c2cc(-c3cnc(OC)nc3)c(C#N)c(N)n2)c(C)n1
Percent Effect [%]: 100.5

COMPOUND: CCn1nc(C)cc1C(=O)N1C[C@H]2CCC[C@@]2(COc2ccccn2)C1.O=C(O)C(F)(F)F
Percent Effect [%]: -22.73

Challenge: For the compound Cc1nc(C2CCN(C)CC2)cc(N2CCOc3ccc(Cl)cc3C2)n1 , report Percent Effect.
Response given: -13.3

###

Test system: Mycobacterium tuberculosis
ASSAY REMARKS: Cornell M. t heat shock assay; note: in the data most compounds retested in dose-response had high values
Format: functional, organism-based
Parameters: dose or concentration left out as unconfirmed
Out of some 69,000 compounds screened, about 950 (1.4%) showed an effect of 50% or more. For the sample, strong results were picked, then their nearest neighbours and some compounds at random.
Percent Effect listing for selected compounds.
Give the value in % but do not write % after it.

Worked cases, answers included:
COMPOUND: COc1ccc(C2CCCCCN2S(C)(=O)=O)cc1 (configuration not stated)
DISPLAY UNIT: %
Percent Effect: -12.37

COMPOUND: CCOC(=O)N1CCN(C(=O)c2cc(-c3ccccc3F)on2)CC1
DISPLAY UNIT: %
Percent Effect: 9.54

COMPOUND: Cc1cc(C(=O)N2CCN(c3nc4c(F)cccc4s3)CC2)no1
DISPLAY UNIT: %
Percent Effect: 70.89

COMPOUND: CCNc1ncc(CN(CCN(C)C)Cc2ccc(C)s2)cn1
DISPLAY UNIT: %
Percent Effect: 2.161

Challenge: For the compound Cc1nc(CN2C(=O)COC3(CCN(C)CC3)C2C)cs1.O=C(O)C(F)(F)F (configuration not stated) , report Percent Effect.
Response given: -6.14

Challenge: For the compound CN(C)c1ncc(-c2cccc(C(N)=O)c2)c(C2CNCCO2)n1.Cl (configuration not stated) , report Percent Effect.
Response given: -21.53

Challenge: For the compound CC(C)N1CCO[C@H]2CN(C(=O)c3ccccn3)C[C@H]21.O=C(O)C(F)(F)F.O=C(O)C(F)(F)F , report Percent Effect.
Response given: -26.06

###

System: Mycobacterium tuberculosis
ASSAY REMARKS: Cornell M. t heat shock assay; note: in the data most compounds retested in dose-response had high values
Assay type: functional, organism-based
Parameters: dose or concentration left out as unconfirmed
The campaign covered roughly 69,000 compounds. About 950 (1.4%) showed an effect of 50% or more. For the sample, strong results were picked, then their nearest neighbours and some compounds at random.
TEST READOUT: Percent Effect (%)
Give the value in % but do not write % after it.

Challenge: For the compound c1ccc(-c2nc3c(c(NCCCn4cncn4)n2)CCNCC3)nc1 , report Percent Effect.
Response given: 8.8

Challenge: For the compound C1CN(CC2CC2)C(COCC2CC2)c2nnn(CC3CC3)c21.O=C(O)C(F)(F)F (centres undefined) , report Percent Effect.
Response given: -14.94

Challenge: For the compound CCC1(O)CCCN(c2ncnc3c2c(C)nn3C)C1 (centres undefined) , report Percent Effect.
Response given: 10.34

Challenge: For the compound COCC(=O)N1CCCn2c(CN3CCOCC3)nnc2C1.O=C(O)C(F)(F)F , report Percent Effect.
Response given: -20.35

###

Percent Effect listing for selected molecules.
System: Mycobacterium tuberculosis
ASSAY REMARKS: Cornell M. t heat shock assay; note: in the data most compounds retested in dose-response had high values
Format: functional, organism-based
Parameters: dose or concentration left out as unconfirmed
Hit rate of the full screen: of about 69,000 compounds, about 950 (1.4%) showed an effect of 50% or more. The sample as a whole holds a higher share of strong results than the screen did.
Give the value in % but do not write % after it.

Worked cases, answers included:
MOLECULE: Cc1cc(CN2CC[C@H]3C(=O)N(c4ccccc4)CCO[C@H]3C2)no1.O=C(O)C(F)(F)F
MEASURED ON: Mycobacterium tuberculosis
DISPLAY UNIT: %
EXPERIMENTAL VALUE: -6.692
//
MOLECULE: CCOc1ccccc1C(N)CC(C)C (centres undefined)
MEASURED ON: Mycobacterium tuberculosis
DISPLAY UNIT: %
EXPERIMENTAL VALUE: 6.467
//
MOLECULE: COCCN1CCc2c(cnc(-c3ccccc3)c2C(=O)O)C1.O=C(O)C(F)(F)F
MEASURED ON: Mycobacterium tuberculosis
DISPLAY UNIT: %
EXPERIMENTAL VALUE: -9.252

The record that follows has no Percent Effect shown yet.
Challenge: For the molecule CCC1CN(C(=O)c2cccc(O)c2)CCC(=O)N1Cc1ccccc1 (centres undefined) , report Percent Effect.
Response given: 3.275

###

Tested on: Mycobacterium tuberculosis
ASSAY REMARKS: Cornell M. t heat shock assay; note: in the data most compounds retested in dose-response had high values
Format: functional, organism-based
Design: dose or concentration left out as unconfirmed
Among all 69,000 compounds or so, about 950 (1.4%) showed an effect of 50% or more. Only a selection was taken, and strong results are over-represented in it overall.
Percent Effect listing for selected compounds.
Give the value in % but do not write % after it.

Worked cases, answers included:
COMPOUND: O=C(O)C(F)(F)F.c1ccc2c(c1)N(CC1CCOC1)CC21CCN(c2cnccn2)CC1 (stereo not drawn)
Percent Effect (%): 16.03
//
COMPOUND: CC(C)Nc1ncnc2c1CCN(C(=O)[C@H]1CCCO1)CC2
Percent Effect (%): -13.05
//
COMPOUND: CC(=O)N1Cc2ccnn2CC(C(=O)NCc2cccnc2)C1.O=C(O)C(F)(F)F (stereo not drawn)
Percent Effect (%): 37.04
//
COMPOUND: c1ccc(N2CCCC2)c(NCc2ccncc2)c1
Percent Effect (%): -19.28
//
COMPOUND: CCn1cc2c(n1)C(COC)CN(C(=O)c1ccccn1)C2 (stereo not drawn)
Percent Effect (%): -31.72

Challenge: For the compound CC(C)c1n[nH]c(C(=O)Nc2ccccn2)c1Br , report Percent Effect.
Response given: -0.4918

Challenge: For the compound CNC(=O)CN1CCOCC2(CCCN(Cc3ccsc3)C2)C1.O=C(O)C(F)(F)F.O=C(O)C(F)(F)F (stereo not drawn) , report Percent Effect.
Response given: -10.69

Challenge: For the compound CCC[C@@H]1CN(C(=O)c2cc3ccccc3s2)C[C@H]1NS(C)(=O)=O , report Percent Effect.
Response given: 11.11
